CRF1R Emax values by entry
testedOn: CRF1R
testDescription: cell-based or functional assay
Ends that are not written are not given here.
Answer with a number only, understood to be in %.

SQEPPISLDLPTELLREVLEMTKADQLAQQAHSNRKIIDIA-NH2 [SEQ ID NO 92] ... 4.6

CRF1R Emax reading for IVLSLDVPIGLLQILLEMARAEQLAQQAHSNRKLMEII-NH2 [SEQ ID NO 164] : 26

CRF1R Emax reading for ZGPPISIDLPGYLLRKMIEIEKQEKEKQQAANNRLLLDTI (C-terminal amide) [SEQ ID NO 63] : 34
